Where these numbers come from: patent US20150258107A1

assay: Plasma toxicokinetics in dogs, fourteen day repeat dose; assay type: in vivo, dog; conditions: male, dog, plasma, po, 0.5 mg/kg, male dogs, Gr 2, 0.5 mg/kg, D14
measurement-name: half-life (min)
State just the number; it will be interpreted in min.

Q: Find the recorded half-life belonging to `CC[C@H]1CC2C[C@H]3c4[nH]c5ccc(O)cc5c4CCN(C2)C13` and report it.
A: 78

---

experiment: Plasma toxicokinetics in dogs, fourteen day repeat dose; type: in vivo, dog; details: female, dog, plasma, po, 0.5 mg/kg, female dogs, Gr 2, 0.5 mg/kg, D1
measurement-name: AUC(0-inf) (ng·h/mL)
State just the number; it will be interpreted in ng·h/mL.

Q: Find the recorded AUC(0-inf) belonging to `CC[C@H]1CC2C[C@H]3c4[nH]c5ccc(O)cc5c4CCN(C2)C13` and report it.
A: 44.9
